Molecular target: Muscarinic acetylcholine receptor M3 (Homo sapiens) (UniProt P20309)
Sequence (P20309 whole entry, looked up): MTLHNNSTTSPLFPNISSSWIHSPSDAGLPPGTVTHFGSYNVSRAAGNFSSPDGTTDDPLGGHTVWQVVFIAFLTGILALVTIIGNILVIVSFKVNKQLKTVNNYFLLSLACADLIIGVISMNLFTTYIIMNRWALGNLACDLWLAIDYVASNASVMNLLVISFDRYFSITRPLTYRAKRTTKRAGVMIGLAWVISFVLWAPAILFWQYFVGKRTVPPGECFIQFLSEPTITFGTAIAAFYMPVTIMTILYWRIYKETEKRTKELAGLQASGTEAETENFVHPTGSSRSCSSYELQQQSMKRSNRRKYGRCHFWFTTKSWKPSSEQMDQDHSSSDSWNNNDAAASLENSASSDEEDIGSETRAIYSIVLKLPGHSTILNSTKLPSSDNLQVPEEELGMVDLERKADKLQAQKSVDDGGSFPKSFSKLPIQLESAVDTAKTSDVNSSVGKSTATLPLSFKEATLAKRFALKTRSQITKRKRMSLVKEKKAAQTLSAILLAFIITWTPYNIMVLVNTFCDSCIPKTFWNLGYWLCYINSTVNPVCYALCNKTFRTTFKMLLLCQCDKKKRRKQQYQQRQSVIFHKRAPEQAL
Experiment: Ability to displace [3H]N-methylscopolamine binding to M3 human recombinant muscarinic receptor in CHO cells at concentration 1 uM
Type: cell-based
Class label 1: inhibition at least 3%. Class label 0: inhibition below 3%.

{"MOLECULE": "CC(C)(C)OC(=O)Nc1ccc(-c2cc(/C=C3/CN4CCC3CC4)on2)cc1", "TARGET SYSTEM": "Muscarinic acetylcholine receptor M3 (Homo sapiens) (UniProt P20309)", "QUALITATIVE LABEL": "label 1"}
{"MOLECULE": "Nc1ccc(-c2cc(/C=C3/CN4CCC3CC4)on2)cc1", "TARGET SYSTEM": "Muscarinic acetylcholine receptor M3 (Homo sapiens) (UniProt P20309)", "QUALITATIVE LABEL": "label 0"}
{"MOLECULE": "COc1ccc(COc2ccc(-c3cc(/C=C4\\CN5CCC4C5)on3)cc2OCc2ccc(OC)cc2)cc1 (stereo not given)", "TARGET SYSTEM": "Muscarinic acetylcholine receptor M3 (Homo sapiens) (UniProt P20309)", "QUALITATIVE LABEL": "label 1"}
{"MOLECULE": "COc1ccc(COc2ccc(-c3cc(/C=C4/CN5CCC4CC5)on3)cc2OCc2ccc(OC)cc2)cc1", "TARGET SYSTEM": "Muscarinic acetylcholine receptor M3 (Homo sapiens) (UniProt P20309)", "QUALITATIVE LABEL": "label 1"}

Task: Answer whether inhibition of C(=C1\CN2CCC1CC2)/c1cc(-c2ccccc2)no1 is greater than or equal to 3%.
Result: label 1

Task: Answer whether inhibition of COc1ccc(COc2ccc(-c3cc(/C=C4/CN5CCC4C5)on3)cc2OCc2ccc(OC)cc2)cc1 (stereo not given) is greater than or equal to 3%.
Result: label 1

Task: Answer whether inhibition of Fc1ccc(-c2cc(/C=C3\CN4CCC3CC4)on2)cc1 is greater than or equal to 3%.
Result: label 0

Task: Answer whether inhibition of Cc1ccc(-c2cc(/C=C3\CN4CCC3CC4)on2)cc1 is greater than or equal to 3%.
Result: label 0

====

Molecular target: UniProt P20309
Test: Ability to displace [3H]N-methylscopolamine binding to M3 human recombinant muscarinic receptor in CHO cells at concentration 10 uM
Assay type: cell-based
Reported inhibition values for a set of molecules
Number in %, nothing else.

{"MOLECULE": "CC(C)(C)OC(=O)Nc1ccc(-c2cc(/C=C3\\CN4CCC3C4)on2)cc1 (stereo not given)", "UNIT SYMBOL": "%", "inhibition": 53}

response.value for CC(C)(C)OC(=O)Nc1ccc(-c2cc(/C=C3\CN4CCC3CC4)on2)cc1 (field: inhibition) = 41

====

Molecular target: Muscarinic acetylcholine receptor M2 (Homo sapiens) (UniProt P08172)
Sequence (whole entry): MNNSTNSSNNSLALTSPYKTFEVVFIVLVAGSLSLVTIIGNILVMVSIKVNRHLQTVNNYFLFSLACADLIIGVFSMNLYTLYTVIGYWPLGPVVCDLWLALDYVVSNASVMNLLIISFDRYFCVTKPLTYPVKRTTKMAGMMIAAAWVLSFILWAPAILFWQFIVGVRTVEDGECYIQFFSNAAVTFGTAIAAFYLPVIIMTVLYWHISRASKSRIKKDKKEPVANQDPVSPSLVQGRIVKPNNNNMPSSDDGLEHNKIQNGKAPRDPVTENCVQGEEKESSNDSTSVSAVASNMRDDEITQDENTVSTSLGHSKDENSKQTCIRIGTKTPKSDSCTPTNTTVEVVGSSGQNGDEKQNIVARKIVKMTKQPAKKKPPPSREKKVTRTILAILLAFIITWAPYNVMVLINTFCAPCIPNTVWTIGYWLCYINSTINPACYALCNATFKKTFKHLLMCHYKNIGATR
Experiment: Ability to displace [3H]N-methylscopolamine binding to M2 human recombinant muscarinic receptor in CHO cells at concentration 10 uM
Format: cell-based
Class YES: inhibition at least 10%. Class NO: inhibition below 10%.

{"COMPOUND": "COc1ccc(-c2cc(/C=C3/CN4CCC3C4)on2)cc1 (stereo unspecified)", "QUALITATIVE LABEL": "YES"}

Task: Answer whether inhibition of Oc1ccc(-c2cc(/C=C3/CN4CCC3C4)on2)cc1 (stereo unspecified) is greater than or equal to 10%.
Result: NO

Task: Answer whether inhibition of COc1ccc(COc2ccc(-c3cc(/C=C4\CN5CCC4CC5)on3)cc2OCc2ccc(OC)cc2)cc1 is greater than or equal to 10%.
Result: YES

Task: Answer whether inhibition of COc1ccc(COc2ccc(-c3cc(/C=C4/CN5CCC4CC5)on3)cc2)cc1 is greater than or equal to 10%.
Result: YES

Task: Answer whether inhibition of Cc1ccc(-c2cc(/C=C3/CN4CCC3CC4)on2)cc1 is greater than or equal to 10%.
Result: YES
